Each entry below carries its reported zone of inhibition at 62.5 µg/mL.
tested on: Fusarium verticillioides; assay: Antifungal activity, agar well diffusion method; assay type: cell-based; settings: Fusarium verticillioides; 0.0625 mg/mL; 0 = absence of antifungal activity; read-out: Diameter of inhibition zone
Number in mm, nothing else.

Check out these entries, answers already filled in.
| compound | measuredOn | zone of inhibition at 62.5 µg/mL, mm |
| --- | --- | --- |
| O=C(N[C@@H]1[C@@H]2CC[C@@]1(c1ccc(Cl)cc1)C2)c1cccnc1Cl (relative stereo) | Fusarium verticillioides | 31 |
| O=C(N[C@@H]1[C@H]2C[C@]1(c1ccc(Cl)cc1)CO2)c1cccnc1Cl (relative stereo) | Fusarium verticillioides | 0 |
| Cn1cc(C(=O)N[C@@H]2[C@H]3C[C@]2(c2cc(F)c(F)c(F)c2)CO3)c(C(F)F)n1 (relative stereo) | Fusarium verticillioides | 31 |

## Input Suppose we examine the compound Cn1cc(C(=O)N[C@@H]2[C@@H]3CC[C@@]2(c2cc(F)c(F)c(F)c2)C3)c(C(F)F)n1 (relative stereo) ; what zone of inhibition at 62.5 µg/mL value has been reported?
## Output 47

Source: paper PMC10396955
